solubility reference
# Protocol Text: Thermodynamic equilibrium solubility
# Assay type: physicochemical
# Reported Conditions: simulated intestinal fluid (SIF), 25 °C, fassgf or other biorelevant, thermodynamic from solid; read-out: Solubility in μg/mL, SIF
Please reply with the bare figure in µg/mL and do not write the unit itself.

# Compound, solubility, µg/mL
measured = [
    ("CN1CCC(c2c(O)cc(O)c3c(=O)cc(/C=C/c4c(Cl)cccc4Cl)oc23)C(O)C1.Cl (stereo not shown) [Hydrochloride salt of 33]", 10),
    ("CN1CCC(c2c(O)cc(O)c3c(=O)cc(/C=C/c4c(Cl)cccc4Cl)oc23)C(O)C1 (stereo not shown) [Compound 33]", 20),
]

Endpoint output: solubility of CN1CCC(c2c(O)cc(O)c3c(=O)cc(/C=C/c4c(F)c(F)c(F)c(F)c4F)oc23)C(O)C1 (stereo not shown) [Compound 34] . Value?
20

Endpoint output: solubility of CN1CCC(c2c(O)cc(O)c3c(=O)cc(/C=C/c4c(F)c(F)c(F)c(F)c4F)oc23)C(O)C1.Cl (stereo not shown) [Hydrochloride salt of 34] . Value?
40

====

inhibition at 10 µM reference
# Tested on: A-375 (Melanoma)
# Protocol Text: Cytotoxicity, MTT assay, A-375
# Assay type: cell-based
# Reported Conditions: Homo sapiens, 10 μM, read-out: Cell Growth Inhibition (%)
Please reply with the bare figure in % and do not write the unit itself.

Examples with answers:
# Molecule, Observed Value
records = [
    ("Cc1oc2c(C3CCN(C)CC3O)c(O)cc(O)c2c(=O)c1C(O)c1ccc([N+](=O)[O-])cc1 (stereo not drawn)", 35.9),
    ("Cc1cc(=O)c2c(O)cc(OC/C=C/c3ccccc3)c(C3CCN(C)CC3O)c2o1 (stereo not drawn)", 21.8),
    ("CN1CCC(c2c(O)cc(O)c3c(=O)cc(/C=C/c4c5ccccc5cc5ccccc45)oc23)C(O)C1 (stereo not drawn)", 4.96),
    ("Cc1cc(=O)c2c(O)cc(OC(=O)c3ccco3)c(C3CCN(C)CC3O)c2o1 (stereo not drawn)", 11.2),
    ("Cc1cc(=O)c2c(O)cc(OCc3ccccc3Br)c(C3CCN(C)CC3O)c2o1 (stereo not drawn)", 58.6),
]

Endpoint output: inhibition at 10 µM of Cc1cc(=O)c2c(O)cc(OCc3ccc([N+](=O)[O-])cc3)c(C3CCN(C)CC3O)c2o1 (stereo not drawn) . Value?
37.5

Endpoint output: inhibition at 10 µM of Cc1oc2c(C3CCN(C)CC3O)c(O)cc(O)c2c(=O)c1C(O)c1c(F)cccc1Cl (stereo not drawn) . Value?
20.8

====

IC50 reference
# Test system: Caco-2 (Colon)
# Protocol Text: Cytotoxicity, MTT assay, Caco-2
# Format: cell-based
# Reported Conditions: Homo sapiens
Please reply with the bare figure in µM and do not write the unit itself.

Examples with answers:
# Molecule, Target System, Unit Tag, IC50
records = [
    ("CN1CCC(c2c(O)cc(O)c3c(=O)cc(/C=C/c4ccccc4)oc23)C(O)C1 (centres unmarked)", "Caco-2 (Colon)", "µM", 3.7),
    ("CN1CCC(c2c(O)cc(O)c3c(=O)cc(/C=C/c4ccccc4F)oc23)C(O)C1 (centres unmarked)", "Caco-2 (Colon)", "µM", 8),
    ("CN1CCC(c2c(O)cc(O)c3c(=O)cc(/C=C/c4c(F)c(F)c(F)c(F)c4F)oc23)C(O)C1 (centres unmarked)", "Caco-2 (Colon)", "µM", 7),
    ("CN1CCC(c2c(O)cc(O)c3c(=O)cc(/C=C/c4ccc(Cl)cc4)oc23)C(O)C1 (centres unmarked)", "Caco-2 (Colon)", "µM", 5.6),
]

Pending molecule:
Endpoint output: IC50 of CN1CCC(c2c(O)cc(O)c3c(=O)cc(/C=C/c4c(Cl)cccc4Cl)oc23)C(O)C1 (centres unmarked) . Value?
7

====

solubility reference
# Protocol Text: Thermodynamic equilibrium solubility
# Format: physicochemical
# Reported Conditions: phosphate buffer saline (PBS), 25 °C, aqueous buffer, thermodynamic from solid; read-out: Solubility in μg/mL, PBS

Examples with answers:
# Compound, solubility
data = [
    ("CN1CCC(c2c(O)cc(O)c3c(=O)cc(/C=C/c4c(F)c(F)c(F)c(F)c4F)oc23)C(O)C1.Cl (stereo not shown) [Hydrochloride salt of 34]", "40 µg/mL"),
    ("CN1CCC(c2c(O)cc(O)c3c(=O)cc(/C=C/c4c(F)c(F)c(F)c(F)c4F)oc23)C(O)C1 (stereo not shown)", "10 µg/mL"),
    ("CN1CCC(c2c(O)cc(O)c3c(=O)cc(/C=C/c4c(Cl)cccc4Cl)oc23)C(O)C1.Cl (stereo not shown) [Hydrochloride salt of 33]", "40 µg/mL"),
]

Pending compound:
Endpoint output: solubility of CN1CCC(c2c(O)cc(O)c3c(=O)cc(/C=C/c4c(Cl)cccc4Cl)oc23)C(O)C1 (stereo not shown) . Value?
5 µg/mL

====

# Target System: CDK-2/cyclin A (Homo sapiens (Human), UniProt P24941)
# Protocol Text: Inhibition of CDK-2/cyclin A
# Type: biochemical
Quantity: IC50

Endpoint output: IC50 of CN1CCC(c2c(O)cc(O)c3c(=O)cc(/C=C/c4cccc(F)c4)oc23)C(O)C1 (stereo not shown) [Compound 35] . Value?
466 nM

Endpoint output: IC50 of Cc1cc(=O)c2c(O)cc(O)c(C3CCN(C)CC3O)c2o1 (stereo not shown) [Compound 1, reference compound] . Value?
> 10000 nM

Endpoint output: IC50 of CN1CCC(c2c(O)cc(O)c3c(=O)cc(/C=C/c4c(F)c(F)c(F)c(F)c4F)oc23)C(O)C1 (stereo not shown) [Compound 34] . Value?
608 nM

Endpoint output: IC50 of CN1CCC(c2c(O)cc(O)c3c(=O)cc(/C=C/c4c(Cl)cccc4Cl)oc23)C(O)C1 (stereo not shown) [Compound 33] . Value?
16 nM

====

# System: HL-60 (Leukemia)
# Protocol Text: Cytotoxicity, MTT assay, HL-60
# Type: cell-based
# Reported Conditions: Homo sapiens, 10 μM, read-out: Cell Growth Inhibition (%)
inhibition at 10 µM reference
Please reply with the bare figure in % and do not write the unit itself.

# Molecule, inhibition at 10 µM [%]
measured = [
    ("Cc1cc(=O)c2c(O)cc(OCc3ccc(Br)cc3)c(C3CCN(C)CC3O)c2o1 (stereo not shown)", 26.9),
    ("Cc1cc(=O)c2c(O)cc(OCc3ccco3)c(C3CCN(C)CC3O)c2o1 (stereo not shown)", 31.9),
    ("Cc1oc2c(C3CCN(C)CC3O)c(O)cc(O)c2c(=O)c1C(O)c1ccc(Cl)cc1 (stereo not shown)", 1.93),
]

Pending molecule:
Endpoint output: inhibition at 10 µM of Cc1cc(=O)c2c(O)cc(OCc3ccc([N+](=O)[O-])cc3)c(C3CCN(C)CC3O)c2o1 (stereo not shown) . Value?
14.4

====

IC50 reference
# Target System: CDK-9/Cyclin T1 (Homo sapiens (Human), UniProt P50750)
# Sequence (P50750 whole entry): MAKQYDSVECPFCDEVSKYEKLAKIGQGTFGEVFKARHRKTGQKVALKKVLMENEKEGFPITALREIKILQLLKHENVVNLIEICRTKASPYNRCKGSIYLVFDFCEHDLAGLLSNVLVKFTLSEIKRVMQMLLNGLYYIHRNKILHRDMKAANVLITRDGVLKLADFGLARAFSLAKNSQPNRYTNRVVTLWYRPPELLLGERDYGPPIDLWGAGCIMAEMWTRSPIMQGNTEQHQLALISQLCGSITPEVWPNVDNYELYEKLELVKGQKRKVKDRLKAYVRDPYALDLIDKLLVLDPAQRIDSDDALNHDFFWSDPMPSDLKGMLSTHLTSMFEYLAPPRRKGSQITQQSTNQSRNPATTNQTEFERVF
# Sequence (O60563 whole entry partner): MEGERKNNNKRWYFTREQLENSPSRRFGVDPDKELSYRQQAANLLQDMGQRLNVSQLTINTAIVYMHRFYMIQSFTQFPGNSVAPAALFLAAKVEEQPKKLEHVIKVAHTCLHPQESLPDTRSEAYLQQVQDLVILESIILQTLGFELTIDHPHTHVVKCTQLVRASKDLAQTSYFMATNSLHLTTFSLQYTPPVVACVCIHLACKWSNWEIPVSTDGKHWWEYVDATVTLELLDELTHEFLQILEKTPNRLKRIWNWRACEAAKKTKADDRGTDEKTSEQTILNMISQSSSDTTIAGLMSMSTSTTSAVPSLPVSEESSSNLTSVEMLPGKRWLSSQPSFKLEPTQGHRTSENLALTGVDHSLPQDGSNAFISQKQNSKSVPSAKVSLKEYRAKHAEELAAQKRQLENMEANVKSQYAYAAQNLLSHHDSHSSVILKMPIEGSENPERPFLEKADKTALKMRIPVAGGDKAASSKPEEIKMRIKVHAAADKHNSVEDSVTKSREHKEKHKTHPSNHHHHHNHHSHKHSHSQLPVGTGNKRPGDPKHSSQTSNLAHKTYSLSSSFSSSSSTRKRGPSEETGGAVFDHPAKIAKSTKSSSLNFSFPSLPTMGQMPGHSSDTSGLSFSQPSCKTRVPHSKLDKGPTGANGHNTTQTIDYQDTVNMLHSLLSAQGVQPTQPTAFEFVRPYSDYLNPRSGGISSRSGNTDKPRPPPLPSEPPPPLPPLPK
# Protocol Text: Inhibition of CDK-9/cyclin T1
# Reported Conditions: IC50 (nM) CDK-9/T1
Please reply with the bare figure in nM and do not write the unit itself.

Examples with answers:
# Molecule, Unit Tag, IC50
measured = [
    ("Cc1cc(=O)c2c(O)cc(O)c(C3CCN(C)CC3O)c2o1 (stereo not shown) [Compound 1, reference compound]", "nM", 550),
    ("CN1CCC(c2c(O)cc(O)c3c(=O)cc(/C=C/c4c(Cl)cccc4Cl)oc23)C(O)C1 (stereo not shown)", "nM", 2),
    ("CN1CCC(c2c(O)cc(O)c3c(=O)cc(/C=C/c4c(F)c(F)c(F)c(F)c4F)oc23)C(O)C1 (stereo not shown)", "nM", 12),
]

Endpoint output: IC50 of CN1CCC(c2c(O)cc(O)c3c(=O)cc(/C=C/c4cccc(F)c4)oc23)C(O)C1 (stereo not shown) . Value?
30

====

solubility reference
# Protocol Text: Thermodynamic equilibrium solubility
# Type: physicochemical
# Reported Conditions: 25 °C, thermodynamic from solid; water, 25±1° C.; read-out: Solubility in μg/mL, Water
Please reply with the bare figure in µg/mL and do not write the unit itself.

# Compound, Unit Tag, Observed Value
records = [
    ("CN1CCC(c2c(O)cc(O)c3c(=O)cc(/C=C/c4c(Cl)cccc4Cl)oc23)C(O)C1 (stereo not shown) [Compound 33]", "µg/mL", 5),
]

Endpoint output: solubility of CN1CCC(c2c(O)cc(O)c3c(=O)cc(/C=C/c4c(F)c(F)c(F)c(F)c4F)oc23)C(O)C1 (stereo not shown) [Compound 34] . Value?
5

====

# Protocol Text: Thermodynamic equilibrium solubility
# Format: physicochemical
# Reported Conditions: simulated gastric fluid (SGF), 25 °C, simulated gastric fluid, thermodynamic from solid; read-out: Solubility in μg/mL, SGF
Quantity: solubility

Examples with answers:
# Compound, solubility
measured = [
    ("CN1CCC(c2c(O)cc(O)c3c(=O)cc(/C=C/c4c(Cl)cccc4Cl)oc23)C(O)C1.Cl (stereo not shown) [Hydrochloride salt of 33]", "40 µg/mL"),
    ("CN1CCC(c2c(O)cc(O)c3c(=O)cc(/C=C/c4c(F)c(F)c(F)c(F)c4F)oc23)C(O)C1 (stereo not shown)", "80 µg/mL"),
    ("CN1CCC(c2c(O)cc(O)c3c(=O)cc(/C=C/c4c(F)c(F)c(F)c(F)c4F)oc23)C(O)C1.Cl (stereo not shown) [Hydrochloride salt of 34]", "80 µg/mL"),
]

Pending compound:
Endpoint output: solubility of CN1CCC(c2c(O)cc(O)c3c(=O)cc(/C=C/c4c(Cl)cccc4Cl)oc23)C(O)C1 (stereo not shown) . Value?
40 µg/mL
